# target-desc: wild-type EGFR-TK (Homo sapiens)
# Sequence (P00533 25-1210): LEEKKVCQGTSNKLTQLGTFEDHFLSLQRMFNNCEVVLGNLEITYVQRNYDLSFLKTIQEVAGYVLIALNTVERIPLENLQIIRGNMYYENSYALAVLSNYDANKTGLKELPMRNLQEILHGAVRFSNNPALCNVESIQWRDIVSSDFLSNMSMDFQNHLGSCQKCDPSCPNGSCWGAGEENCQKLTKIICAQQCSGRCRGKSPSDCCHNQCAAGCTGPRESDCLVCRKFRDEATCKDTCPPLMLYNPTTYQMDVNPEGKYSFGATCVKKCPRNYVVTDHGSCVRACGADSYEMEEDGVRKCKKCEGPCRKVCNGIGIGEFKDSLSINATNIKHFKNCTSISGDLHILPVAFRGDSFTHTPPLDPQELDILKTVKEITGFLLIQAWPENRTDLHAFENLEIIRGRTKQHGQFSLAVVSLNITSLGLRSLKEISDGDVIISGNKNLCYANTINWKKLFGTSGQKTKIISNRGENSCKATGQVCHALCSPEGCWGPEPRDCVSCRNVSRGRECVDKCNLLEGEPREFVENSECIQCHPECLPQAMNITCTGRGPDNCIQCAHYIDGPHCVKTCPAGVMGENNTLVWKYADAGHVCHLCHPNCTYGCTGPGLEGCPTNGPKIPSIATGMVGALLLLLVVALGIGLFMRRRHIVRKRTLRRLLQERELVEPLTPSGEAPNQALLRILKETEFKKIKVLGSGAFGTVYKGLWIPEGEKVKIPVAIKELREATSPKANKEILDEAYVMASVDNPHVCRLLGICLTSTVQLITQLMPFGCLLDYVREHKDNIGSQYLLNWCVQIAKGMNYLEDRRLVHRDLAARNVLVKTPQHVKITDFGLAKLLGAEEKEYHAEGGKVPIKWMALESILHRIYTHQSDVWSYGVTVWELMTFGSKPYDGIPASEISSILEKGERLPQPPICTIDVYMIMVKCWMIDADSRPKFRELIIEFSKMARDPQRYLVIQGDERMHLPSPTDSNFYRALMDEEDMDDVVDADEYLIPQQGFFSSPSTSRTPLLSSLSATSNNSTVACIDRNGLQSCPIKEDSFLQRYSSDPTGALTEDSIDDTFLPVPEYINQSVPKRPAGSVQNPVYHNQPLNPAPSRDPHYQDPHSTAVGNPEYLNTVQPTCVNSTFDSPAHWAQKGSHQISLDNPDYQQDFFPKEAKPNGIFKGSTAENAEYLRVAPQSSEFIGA
pIC50: −log10 of the molar value.

compound-string	pIC50
C=CC(=O)Nc1cc(I)cc(Nc2nc(Nc3ccc(N4CCN(C(C)=O)CC4)cc3OC)ncc2C(F)(F)F)c1	< 5.00

----------
# test-name: Biodistribution in normal ddY mice
# Type: in vivo, mouse
# condition-info: i.v., 24 h

molecule	Biodistribution, Feces [% ID]
C=CC(=O)Nc1cc([125I])cc(Nc2nc(Nc3ccc(N4CCN(C(C)=O)CC4)cc3OC)ncc2C(F)(F)F)c1 [[^125I]10]	69.9

----------
# test-name: Partition coefficient, shake-flask n-octanol/phosphate buffer
# Type: physicochemical
# condition-info: n-octanol/0.1 M phosphate buffer pH 7.4, shake-flask

molecule	logP
C=CC(=O)Nc1cc([125I])cc(Nc2nc(Nc3ccc(N4CCN(C(C)=O)CC4)cc3OC)ncc2C(F)(F)F)c1 [[^125I]10]	1.84

----------
# target-desc: EGFR-TK with L858R/T790M mutation (Homo sapiens, UniProt P00533, L858R/T790M)
# Sequence (P00533 25-1210 T790M/L858R): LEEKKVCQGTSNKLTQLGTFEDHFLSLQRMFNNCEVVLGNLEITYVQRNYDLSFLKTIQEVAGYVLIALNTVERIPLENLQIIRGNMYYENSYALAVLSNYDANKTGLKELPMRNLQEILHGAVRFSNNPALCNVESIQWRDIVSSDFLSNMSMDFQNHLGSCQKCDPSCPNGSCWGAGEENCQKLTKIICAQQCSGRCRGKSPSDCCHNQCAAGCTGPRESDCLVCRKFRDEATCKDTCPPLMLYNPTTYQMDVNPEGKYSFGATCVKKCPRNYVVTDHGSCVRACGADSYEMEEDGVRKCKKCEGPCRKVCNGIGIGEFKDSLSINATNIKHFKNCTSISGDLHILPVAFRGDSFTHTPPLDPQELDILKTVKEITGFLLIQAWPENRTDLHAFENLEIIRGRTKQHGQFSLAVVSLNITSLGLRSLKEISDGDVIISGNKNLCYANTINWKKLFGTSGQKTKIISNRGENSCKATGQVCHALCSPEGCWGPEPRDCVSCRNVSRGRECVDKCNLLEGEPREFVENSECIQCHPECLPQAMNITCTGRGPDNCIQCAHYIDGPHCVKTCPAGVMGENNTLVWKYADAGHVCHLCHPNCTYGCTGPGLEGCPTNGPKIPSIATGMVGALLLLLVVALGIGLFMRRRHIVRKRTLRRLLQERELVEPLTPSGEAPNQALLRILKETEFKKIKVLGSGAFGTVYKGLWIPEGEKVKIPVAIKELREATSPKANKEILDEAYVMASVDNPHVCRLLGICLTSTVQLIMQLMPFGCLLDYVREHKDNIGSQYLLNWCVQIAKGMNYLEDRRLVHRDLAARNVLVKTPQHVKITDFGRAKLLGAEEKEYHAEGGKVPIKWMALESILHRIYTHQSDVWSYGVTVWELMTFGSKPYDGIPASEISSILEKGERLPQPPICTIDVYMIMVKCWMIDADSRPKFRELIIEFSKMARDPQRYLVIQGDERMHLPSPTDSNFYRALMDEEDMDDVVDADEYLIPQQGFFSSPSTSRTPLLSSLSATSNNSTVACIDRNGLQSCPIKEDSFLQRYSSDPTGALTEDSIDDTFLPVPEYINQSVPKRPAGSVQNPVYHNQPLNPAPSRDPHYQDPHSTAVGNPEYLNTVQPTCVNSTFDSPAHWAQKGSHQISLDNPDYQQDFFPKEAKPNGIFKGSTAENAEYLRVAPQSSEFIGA
# test-name: EGFR-TK inhibition assay (ADP-Glo), L858R/T790M
# condition-info: EGFR tyrosine kinase L858R/T790M

compound	IC50 [µM]
C=CC(=O)Nc1cc(I)cc(Nc2nc(Nc3ccc(N4CCN(C(C)=O)CC4)cc3OC)ncc2C(F)(F)F)c1 [compound 10]	0.31
